Recorded values, source ChEMBL document CHEMBL3407438.

assay: Tmax in Wistar rat at 0.2 mg/kg, iv; assay type: ADME, organism-based; parameters: dose 0.2 mg/kg, route intravenous; conditions: in vivo
READOUT_NAME: Tmax (min)
Provide only the numeric value, understood in min.

// Tmax lookup, compound = "Cn1cc(-c2ccc(-c3cncc(Cl)c3N3CCC4(CCNC4=O)CC3)cc2)cn1" , result: 6

---

experiment: Drug metabolism in human liver microsome at 10 uM after 30 mins by LC-MS analysis; format: ADME; conditions: liver microsomes, read-out: Drug metabolism
I'd be grateful if you could share measured metabolised at 0.5 h, 10 µM for these entries.
Provide only the numeric value, understood in %.

// metabolised at 0.5 h, 10 µM lookup, molecule = "NC(=O)C1CCN(c2c(Cl)cncc2-c2cccc(N3CCOCC3)c2)CC1" , result: 39

// metabolised at 0.5 h, 10 µM lookup, molecule = "Cn1cc(-c2cncc(Cl)c2N2CCC(C(N)=O)CC2)cn1" , result: 4

// metabolised at 0.5 h, 10 µM lookup, molecule = "O=C1NCCC12CCN(c1c(Cl)cncc1-c1ccc(N3CCOCC3)cc1)CC2" , result: 20

// metabolised at 0.5 h, 10 µM lookup, molecule = "NC(=O)C1CCN(c2c(Cl)cncc2-c2ccc(N3CCOCC3)cc2)CC1" , result: 19

// metabolised at 0.5 h, 10 µM lookup, molecule = "CC1(C(N)=O)CCN(c2c(Cl)cncc2-c2ccc(N3CCOCC3)cc2)CC1" , result: 21

// metabolised at 0.5 h, 10 µM lookup, molecule = "NC(=O)C1CCN(c2c(Cl)cncc2-c2ccccc2)CC1" , result: 6

// metabolised at 0.5 h, 10 µM lookup, molecule = "NC(=O)C1CCN(c2c(Cl)cncc2Cl)CC1" , result: 22

// metabolised at 0.5 h, 10 µM lookup, molecule = "NC(=O)C1CCN(c2c(Br)cncc2Br)CC1" , result: 13

// metabolised at 0.5 h, 10 µM lookup, molecule = "NC(=O)C1CCN(c2c(Cl)cncc2-c2cccs2)CC1" , result: 27

// metabolised at 0.5 h, 10 µM lookup, molecule = "NC(=O)C1CCN(c2c(Cl)cncc2-c2cn[nH]c2)CC1" , result: 6

---

assay: Drug metabolism in mouse liver microsome at 10 uM after 30 mins by LC-MS analysis; type: ADME; conditions: liver microsomes, read-out: Drug metabolism
READOUT_NAME: metabolised at 0.5 h, 10 µM (%)
Provide only the numeric value, understood in %.

// metabolised at 0.5 h, 10 µM lookup, compound = "NC(=O)C1CCN(c2c(Cl)cncc2-c2cn[nH]c2)CC1" , result: 88

// metabolised at 0.5 h, 10 µM lookup, compound = "CNC(=O)C1CCN(c2c(Cl)cncc2Cl)CC1" , result: 57

// metabolised at 0.5 h, 10 µM lookup, compound = "O=C1CC2(CCN(c3c(Cl)cncc3-c3ccc(N4CCOCC4)cc3)CC2)C(=O)N1" , result: 25

// metabolised at 0.5 h, 10 µM lookup, compound = "O=C1NCCC12CCN(c1c(Cl)cncc1-c1ccc(N3CCOCC3)cc1)CC2" , result: 29

// metabolised at 0.5 h, 10 µM lookup, compound = "NC(=O)C1CCN(c2c(Cl)cncc2-c2cccnc2)CC1" , result: 37

// metabolised at 0.5 h, 10 µM lookup, compound = "Cn1cc(-c2cncc(Cl)c2N2CCC(C(N)=O)CC2)cn1" , result: 27

// metabolised at 0.5 h, 10 µM lookup, compound = "Cc1cncc(-c2ccc(N3CCOCC3)cc2)c1N1CCC2(CCNC2=O)CC1" , result: 26

// metabolised at 0.5 h, 10 µM lookup, compound = "N#CC1CCN(c2c(Cl)cncc2-c2ccc(N3CCOCC3)cc2)CC1" , result: 78

// metabolised at 0.5 h, 10 µM lookup, compound = "NC(=O)C1CCN(c2c(Br)cncc2Br)CC1" , result: 35

// metabolised at 0.5 h, 10 µM lookup, compound = O=C1NCCC12CCN(c1c(Cl)cncc1-c1ccc(N3CCOCC3)cc1)C2 (racemic) , result: 42

// metabolised at 0.5 h, 10 µM lookup, compound = "NC(=O)C1CCN(c2c(Cl)cncc2-c2cccs2)CC1" , result: 97

---

experiment: Half life in NMRI mouse at 0.2 mg/kg, iv; assay type: ADME, organism-based; parameters: dose 0.2 mg/kg, route intravenous; conditions: in vivo
READOUT_NAME: half-life (min)
Provide only the numeric value, understood in min.

// half-life lookup, compound = "Cn1cc(-c2ccc(-c3cncc(Cl)c3N3CCC4(CCNC4=O)CC3)cc2)cn1" , result: 33

// half-life lookup, compound = "O=C1NCCC12CCN(c1c(Cl)cncc1-c1ccc(N3CCOCC3)cc1)CC2" , result: 18.6

---

assay: Tmax in NMRI mouse at 0.5 mg/kg, po; format: ADME, organism-based; set-up: dose 0.5 mg/kg, route oral; conditions: in vivo
I'd be grateful if you could share measured Tmax for these entries.
Provide only the numeric value, understood in min.

// Tmax lookup, compound = "O=C1NCCC12CCN(c1c(Cl)cncc1-c1ccc(N3CCOCC3)cc1)CC2" , result: 15

// Tmax lookup, compound = "Cn1cc(-c2ccc(-c3cncc(Cl)c3N3CCC4(CCNC4=O)CC3)cc2)cn1" , result: 15

---

I'd be grateful if you could share measured metabolised at 0.5 h, 10 µM for these entries.
assay: Drug metabolism in human liver microsome at 10 uM after 30 mins by LC-MS analysis; assay type: ADME; details: liver microsomes, read-out: Drug metabolism
Answer format: number, then unit.

// metabolised at 0.5 h, 10 µM lookup, compound = "NC(=O)C1CCN(c2c(Cl)cncc2-c2ccncc2)CC1" , result: 5%

// metabolised at 0.5 h, 10 µM lookup, compound = "CNC(=O)C1CCN(c2c(Cl)cncc2Cl)CC1" , result: 13%

// metabolised at 0.5 h, 10 µM lookup, compound = "Cc1cncc(-c2ccc(N3CCOCC3)cc2)c1N1CCC2(CCNC2=O)CC1" , result: 5%

// metabolised at 0.5 h, 10 µM lookup, compound = "CN(C)C(=O)C1CCN(c2c(Cl)cncc2Cl)CC1" , result: 22%

// metabolised at 0.5 h, 10 µM lookup, compound = "O=C1CC2(CCN(c3c(Cl)cncc3-c3ccc(N4CCOCC4)cc3)CC2)C(=O)N1" , result: 24%

// metabolised at 0.5 h, 10 µM lookup, compound = "NC(=O)C1CCN(c2ccncc2-c2ccccc2)CC1" , result: 4%

// metabolised at 0.5 h, 10 µM lookup, compound = "COc1ccc(-c2cncc(Cl)c2N2CCC(C(N)=O)CC2)cc1" , result: 30%

// metabolised at 0.5 h, 10 µM lookup, compound = "NC(=O)C1CCN(c2ccncc2Cl)CC1" , result: 8%

// metabolised at 0.5 h, 10 µM lookup, compound = "NC(=O)C1CCN(c2c(Cl)cncc2-c2cccnc2)CC1" , result: 6%

// metabolised at 0.5 h, 10 µM lookup, compound = "CS(=O)(=O)c1ccc(-c2cncc(Cl)c2N2CCC(C(N)=O)CC2)cc1" , result: 0%

// metabolised at 0.5 h, 10 µM lookup, compound = "CC(C)c1cncc(-c2ccc(N3CCOCC3)cc2)c1N1CCC2(CCNC2=O)CC1" , result: 38%

---

I'd be grateful if you could share measured IC50 for these entries.
Target: Poly [ADP-ribose] polymerase tankyrase-2 (Homo sapiens)
Sequence (Q9H2K2 whole entry): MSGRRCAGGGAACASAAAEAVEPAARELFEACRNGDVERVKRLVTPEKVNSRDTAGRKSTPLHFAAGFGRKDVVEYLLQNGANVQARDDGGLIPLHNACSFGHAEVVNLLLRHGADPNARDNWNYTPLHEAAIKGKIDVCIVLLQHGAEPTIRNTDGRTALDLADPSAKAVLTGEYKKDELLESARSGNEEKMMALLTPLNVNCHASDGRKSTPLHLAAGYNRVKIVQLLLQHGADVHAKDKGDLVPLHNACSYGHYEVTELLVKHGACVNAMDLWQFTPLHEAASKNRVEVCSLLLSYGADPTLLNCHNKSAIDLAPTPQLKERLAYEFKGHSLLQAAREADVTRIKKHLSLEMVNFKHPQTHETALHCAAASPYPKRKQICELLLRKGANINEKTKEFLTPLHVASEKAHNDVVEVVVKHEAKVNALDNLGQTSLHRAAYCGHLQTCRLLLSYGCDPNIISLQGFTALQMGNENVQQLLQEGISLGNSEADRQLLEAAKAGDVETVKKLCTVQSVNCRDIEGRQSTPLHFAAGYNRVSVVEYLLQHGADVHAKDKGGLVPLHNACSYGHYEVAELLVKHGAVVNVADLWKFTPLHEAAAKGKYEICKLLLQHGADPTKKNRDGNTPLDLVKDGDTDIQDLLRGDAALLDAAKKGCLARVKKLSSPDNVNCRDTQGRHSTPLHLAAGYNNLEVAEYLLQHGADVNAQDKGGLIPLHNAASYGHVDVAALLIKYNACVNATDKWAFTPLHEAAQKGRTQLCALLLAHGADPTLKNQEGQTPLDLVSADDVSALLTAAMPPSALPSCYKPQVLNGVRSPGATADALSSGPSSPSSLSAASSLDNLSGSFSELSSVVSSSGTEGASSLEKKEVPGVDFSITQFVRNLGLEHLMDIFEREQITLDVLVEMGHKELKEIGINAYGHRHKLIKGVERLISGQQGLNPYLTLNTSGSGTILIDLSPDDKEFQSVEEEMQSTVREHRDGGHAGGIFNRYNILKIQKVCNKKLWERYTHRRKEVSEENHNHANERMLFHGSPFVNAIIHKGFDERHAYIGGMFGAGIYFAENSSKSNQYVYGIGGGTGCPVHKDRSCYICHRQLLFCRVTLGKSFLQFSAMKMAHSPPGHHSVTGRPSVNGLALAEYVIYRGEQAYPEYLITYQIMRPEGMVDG
Provide only the numeric value, understood in µM.

// IC50 lookup, molecule = "O=C1NCCC12CCN(c1c(Cl)cncc1-c1ccc(N3CCOCC3)cc1)CC2" , result: 16

// IC50 lookup, molecule = "Cn1cc(-c2ccc(-c3cncc(Cl)c3N3CCC4(CCNC4=O)CC3)cc2)cn1" , result: 15
